Exercise: state measured Ki for each of the compounds provided.
molecular target: adrenaline α1 receptor; test: Affinity for adrenaline α1 receptor (inhibition of 3H-Prazosin binding to rat cerebral cortex membrane fraction); details: rat cerebral cortex membrane fraction; radioligand 3H-Prazosin; compounds tested as hydrochloride salt
Output should be the measured figure followed by the unit it is expressed in.

The cases that follow already have their Ki on record.
Q: Tell me reported Ki for Cc1cccc(C(=O)NCCCCNCC2Cc3ccccc3O2)c1 (stereo not shown) , tested with adrenaline α1 receptor.
A: 270 nM

Q: Tell me reported Ki for COc1cccc(C(=O)NCCCCNCC2Cc3ccccc3O2)c1 (stereo not shown) , tested with adrenaline α1 receptor.
A: 340 nM

Q: Tell me reported Ki for O=C(NCCCCNCC1Cc2ccccc2O1)c1cccc(C(F)(F)F)c1 (stereo not shown) , tested with adrenaline α1 receptor.
A: 380 nM

Q: Tell me reported Ki for O=C(NCCCCNCC1Cc2ccccc2O1)c1cccc(F)c1 (stereo not shown) , tested with adrenaline α1 receptor.
A: 420 nM

Q: Tell me reported Ki for Cc1ccc(C(=O)NCCCCNCC2Cc3ccccc3O2)cc1 (stereo not shown) , tested with adrenaline α1 receptor.
A: 290 nM

Hey, quick one: what's Ki for each of these?
1. O=S(=O)(NCCCCNCC1Cc2ccccc2O1)c1ccccc1 (stereo not shown)
2. O=C(NCCCCNCC1Cc2ccccc2O1)c1ccccc1 (single isomer, unassigned; (-)) [Example 18]

A:
270 nM
270 nM
